The reader will find reported RAMPO Score values listed item by item below.
Target: T1, His-tagged P3028 peptide (PGE73) (human)
T1 construct: albumin-derived peptide, in solution at 0.5 ug/mL; not shown: His-tag
T1 peptide: VFDEFKPLVEEPQNLIK
Assay: PEPSCAN ELISA, peptide on card

Consider the worked cases shown below.
KKLDTAFVKLSLFTER [SEQ ID NO: 313 KKLDTAFVKLSLFTER]
575
KKLDTFFVKQSLFTER [SEQ ID NO: 339 KKLDTFFVKQSLFTER]
470
KKLDTFFVKLSWFTER [SEQ ID NO: 360 KKLDTFFVKLSWFTER]
409
KKLVTFFVKLSLFTER [SEQ ID NO: 301 KKLVTFFVKLSLFTER]
424
KKLDTFFVKLSLRTER [SEQ ID NO: 371 KKLDTFFVKLSLRTER]
502

Please report RAMPO Score for the following binder: KKLDTFFVKLSLGTER [SEQ ID NO: 363 KKLDTFFVKLSLGTER]
531

Please report RAMPO Score for the following binder: KKLDTFFVKLSHFTER [SEQ ID NO: 351 KKLDTFFVKLSHFTER]
460
